studySystem: human liver FBPase (Homo sapiens, UniProt P09467)
Sequence (P09467 2-338 limits assumed): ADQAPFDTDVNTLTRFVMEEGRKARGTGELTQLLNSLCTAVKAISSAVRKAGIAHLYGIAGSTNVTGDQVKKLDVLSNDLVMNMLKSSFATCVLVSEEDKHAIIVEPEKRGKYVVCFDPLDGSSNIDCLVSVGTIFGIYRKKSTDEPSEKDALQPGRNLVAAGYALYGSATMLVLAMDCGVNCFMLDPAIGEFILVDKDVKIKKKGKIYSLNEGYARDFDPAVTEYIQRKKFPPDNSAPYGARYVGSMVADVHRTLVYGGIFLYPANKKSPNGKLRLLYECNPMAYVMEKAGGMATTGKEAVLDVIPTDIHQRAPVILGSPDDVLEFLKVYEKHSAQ
Quick reference: IC50 of the listed items.
quantity: IC50

compound: CC(C)Cc1[se]c(N)nc1-c1ccc(P(=O)(O)O)o1
val: 40 nM
//
compound: Nc1ncnc2c1ncn2[C@@H]1O[C@H](COP(=O)(O)O)[C@@H](O)[C@H]1O [AMP, reference compound]
val: 1000 nM
